Below is a list of entries, each paired with its recorded IC50 value.
- TEST_TARGET: His-His-USP7 (aa208-560, |C315A|) (Homo sapiens, UniProt Q93009, C315A)
- Construct: His-His-USP7 (aa208-560, |C315A|); His-His (N)
- Sequence (Q93009 208-560 C315A): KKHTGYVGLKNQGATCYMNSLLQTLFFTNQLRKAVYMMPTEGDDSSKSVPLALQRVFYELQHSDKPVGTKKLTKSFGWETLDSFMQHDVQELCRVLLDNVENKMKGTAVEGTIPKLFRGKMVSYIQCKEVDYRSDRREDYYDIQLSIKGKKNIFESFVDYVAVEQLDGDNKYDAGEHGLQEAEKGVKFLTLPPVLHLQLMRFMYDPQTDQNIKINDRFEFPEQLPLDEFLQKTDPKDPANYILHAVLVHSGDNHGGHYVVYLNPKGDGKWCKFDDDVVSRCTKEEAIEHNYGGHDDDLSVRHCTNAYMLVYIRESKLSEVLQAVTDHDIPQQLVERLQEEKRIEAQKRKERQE
- PROTOCOL: Evaluation of the inhibition of USP7 by the Fluorescence Intensity (FLINT) readings
- Type: biochemical
- CONDITION_CONTEXT: 0.25 nM His-His-USP7, compound incubated 60 minutes at 30° C., 500 nM Ubiquitin-Rhodamine-110 substrate; 50% reduction in kinetic rate

| MOLECULE | TEST_TARGET | IC50, nM |
| --- | --- | --- |
| Cc1cccc(Oc2ncn(CC3(O)CCN(C(=O)[C@@H]4CCC(F)(F)C[C@H]4c4ccccc4)CC3)c(=O)c2N)c1 | His-His-USP7 (aa208-560, |C315A|) (Homo sapiens, UniProt Q93009, C315A) | 83.1 |
| CC#CC1(F)CC[C@@H](C(=O)N2CCC(O)(Cn3cnc(Oc4ccc(F)cc4)c(N)c3=O)CC2)[C@H](c2ccccc2)C1 (relative stereo) | His-His-USP7 (aa208-560, |C315A|) (Homo sapiens, UniProt Q93009, C315A) | 89.5 |
| Nc1c(Oc2ccccc2)ncn(CC2(O)CCN(C(=O)[C@@H]3CCC(F)(F)C[C@H]3c3ccccc3)CC2)c1=O | His-His-USP7 (aa208-560, |C315A|) (Homo sapiens, UniProt Q93009, C315A) | 43.7 |
| Nc1c(Oc2ccc(CC(F)F)cc2)ncn(CC2(O)CCN(C(=O)[C@@H]3CCC(F)(F)C[C@H]3c3ccccc3)CC2)c1=O | His-His-USP7 (aa208-560, |C315A|) (Homo sapiens, UniProt Q93009, C315A) | 63.9 |

---

- TEST_TARGET: His-His-USP7 (aa208-560, |C315A|) (Homo sapiens, UniProt Q93009, C315A)
- Construct: His-His-USP7 (aa208-560, |C315A|); His-His (N)
- PROTOCOL: Evaluation of the inhibition of USP7 by the Fluorescence Intensity (FLINT) readings
- Format: biochemical
- CONDITION_CONTEXT: 0.25 nM His-His-USP7, compound incubated 60 minutes at 30° C., 500 nM Ubiquitin-Rhodamine-110 substrate; 50% reduction in kinetic rate

| COMPOUND | IC50 |
| --- | --- |
| Nc1c(Oc2ccc(CNCc3ccccc3)cc2)ncn(CC2(O)CCN(C(=O)[C@@H]3CCC(F)(F)C[C@H]3c3ccccc3)CC2)c1=O | 15 nM |
| CO[C@]1(C#Cc2nnccc2C)CC[C@@H](C(=O)N2CC[C@](O)(Cn3cnc(Oc4ccc(F)cc4)c(N)c3=O)C(F)(F)C2)[C@H](c2ccccc2)C1 | 39.8 nM |
| Nc1c(Oc2ccc(F)cc2)ncn(CC2(O)CCN(C(=O)[C@@H]3CC[C@](O)(Cc4ccccc4)C[C@H]3c3ccccc3)CC2)c1=O (relative stereo) | 63.4 nM |
| Nc1c(Oc2ccc(F)cc2)ncn(CC2(O)CCN(C(=O)[C@@H]3CC[C@@](O)(Cc4ccccn4)C[C@H]3c3ccccc3)CC2)c1=O (relative stereo) | 38.2 nM |
| Nc1c(Oc2ccc(F)cc2)ncn(CC2(O)CCN(C(=O)[C@@H]3CC[C@@](F)(C#Cc4ncccn4)C[C@H]3c3ccccc3)CC2)c1=O | 58.8 nM |
| CO[C@]1(C#Cc2cccnn2)CC[C@@H](C(=O)N2CCC(O)(Cn3cnc(Oc4ccc(F)cc4)c(N)c3=O)CC2)[C@H](c2ccccc2)C1 | 18.5 nM |
| Nc1c(Oc2ccc(F)cc2)ncn(CC2(O)CCN(C(=O)[C@@H]3CC=C(C#Cc4ncccn4)C[C@H]3c3ccccc3)CC2)c1=O | 56.5 nM |
| CO[C@]1(C#Cc2nccn2C)CC[C@@H](C(=O)N2CCC(O)(Cn3cnc(Oc4ccc(F)cc4)c(N)c3=O)CC2)[C@H](c2ccccc2)C1 | 28.2 nM |
| NCc1cccc(Oc2ncn(CC3(O)CCN(C(=O)[C@@H]4CCC(F)(F)C[C@H]4c4ccccc4)CC3)c(=O)c2N)c1 | 9.8 nM |
| Nc1c(Oc2cccc(O)c2)ncn(CC2(O)CCN(C(=O)[C@@H]3CCC(F)(F)C[C@H]3c3ccccc3)CC2)c1=O | 21 nM |
| Nc1c(Oc2cccc(Br)c2)ncn(CC2(O)CCN(C(=O)[C@@H]3CCC(F)(F)C[C@H]3c3ccccc3)CC2)c1=O | 105 nM |
| NCCCc1ccc(Oc2ncn(CC3(O)CCN(C(=O)[C@@H]4CCC(F)(F)C[C@H]4c4ccccc4)CC3)c(=O)c2N)cc1 | 39 nM |

---

- TEST_TARGET: His-His-USP7 (aa208-560, |C315A|) (Homo sapiens, UniProt Q93009, C315A)
- Construct: His-His-USP7 (aa208-560, |C315A|); His-His (N)
- PROTOCOL: Evaluation of the inhibition of USP7 by the Fluorescence Intensity (FLINT) readings
- Format: biochemical
- CONDITION_CONTEXT: 0.25 nM His-His-USP7, compound incubated 60 minutes at 30° C., 500 nM Ubiquitin-Rhodamine-110 substrate; 50% reduction in kinetic rate
Cut-off 0.04 µM on IC50: below means Yes, at or above means No.

| COMPOUND | GROUP_LABEL |
| --- | --- |
| Nc1c(Oc2ccc(F)cc2)ncn(CC2(O)CCN(C(=O)[C@@H]3CC[C@@](F)(C#Cc4ccccn4)C[C@H]3c3ccccc3)CC2)c1=O | Yes |
| Nc1c(Oc2ccc(CC(F)(F)F)cc2)ncn(CC2(O)CCN(C(=O)[C@@H]3CCC(F)(F)C[C@H]3c3ccccc3)CC2)c1=O | No |
| N#Cc1ccc(Oc2ncn(CC3(O)CCN(C(=O)[C@@H]4CCC(F)(F)C[C@H]4c4ccccc4)CC3)c(=O)c2N)cc1Cl | No |
| Nc1c(Oc2ccc(CCC3CCNCC3)cc2)ncn(CC2(O)CCN(C(=O)[C@@H]3CCC(F)(F)C[C@H]3c3ccccc3)CC2)c1=O | No |
| Cc1cnc(C#CC2(F)CCC(C(=O)N3CCC(O)(Cn4cnc(Oc5ccc(F)cc5)c(N)c4=O)CC3)C(c3ccccc3)C2)cn1 (stereo not drawn) | Yes |
| Nc1c(Oc2cccc(C3CNCCO3)c2)ncn(CC2(O)CCN(C(=O)[C@@H]3CCC(F)(F)C[C@H]3c3ccccc3)CC2)c1=O (stereo partly drawn) | Yes |
| Cc1cnnc(C#C[C@@]2(F)CC[C@@H](C(=O)N3CC[C@](O)(Cn4cnc(Oc5ccc(F)cc5)c(N)c4=O)C(F)(F)C3)[C@H](c3ccccc3)C2)c1 | Yes |
| COc1cccc(Oc2ncn(CC3(O)CCN(C(=O)[C@@H]4CCC(F)(F)C[C@H]4c4ccccc4)CC3)c(=O)c2N)c1 | No |
| CO[C@@]1(C#Cc2cccnn2)CC[C@@H](C(=O)N2CCC(O)(Cn3cnc(Oc4ccc(F)cc4)c(N)c3=O)CC2)[C@H](c2ccccc2)C1 | No |
| CO[C@]1(C#Cc2nccc(C)n2)CC[C@@H](C(=O)N2CC[C@](O)(Cn3cnc(Oc4ccc(F)cc4)c(N)c3=O)C(F)(F)C2)[C@H](c2ccccc2)C1 | No |
| CO[C@]1(C#Cc2cnc(C)nc2)CC[C@@H](C(=O)N2CC[C@](O)(Cn3cnc(Oc4ccc(F)cc4)c(N)c3=O)C(F)(F)C2)[C@H](c2ccccc2)C1 | Yes |
| N#Cc1ccc(Oc2ncn(CC3(O)CCN(C(=O)[C@@H]4CCC(F)(F)C[C@H]4c4ccccc4)CC3)c(=O)c2N)cc1 | Yes |
| N#Cc1ccc(Oc2ncn(CC3(O)CCN(C(=O)[C@@H]4CCC(F)(F)C[C@H]4c4ccccc4)CC3)c(=O)c2N)cc1F | No |
| Nc1c(Oc2ccc(C3CCCN3)cc2)ncn(CC2(O)CCN(C(=O)[C@@H]3CCC(F)(F)C[C@H]3c3ccccc3)CC2)c1=O (stereo partly drawn) | Yes |
| Nc1c(Oc2ccc(Cl)cc2)ncn(CC2(O)CCN(C(=O)[C@@H]3CCC(F)(F)C[C@H]3c3ccccc3)CC2)c1=O | No |
| Nc1c(Oc2ccc(F)cc2)ncn(CC2(O)CCN(C(=O)[C@@H]3CC[C@@](F)(C#Cc4cc(F)ccn4)C[C@H]3c3ccccc3)CC2)c1=O | No |
| CO[C@]1(C(=O)N2CCC(O)(Cn3cnc(Oc4ccc(F)cc4)c(N)c3=O)CC2)CC[C@H](C#Cc2nccn2C)C[C@@H]1c1ccccc1 | No |
| Nc1cc(Oc2ncn(CC3(O)CCN(C(=O)[C@@H]4CCC(F)(F)C[C@H]4c4ccccc4)CC3)c(=O)c2N)ccc1F | Yes |
| Nc1c(Oc2ccc(F)c(O)c2)ncn(CC2(O)CCN(C(=O)[C@@H]3CCC(F)(F)C[C@H]3c3ccccc3)CC2)c1=O | No |
| CCC(N)c1ccc(Oc2ncn(CC3(O)CCN(C(=O)[C@@H]4CCC(F)(F)C[C@H]4c4ccccc4)CC3)c(=O)c2N)cc1 (stereo partly drawn) | Yes |
| Nc1c(Oc2ccc(F)cc2)ncn(C[C@@]2(O)CCN(C(=O)[C@@H]3CCC(F)(F)C[C@H]3c3ccccc3)CC2(F)F)c1=O | No |
| CO[C@]1(C#Cc2cccnn2)CC[C@@H](C(=O)N2CC[C@](O)(Cn3cnc(Oc4ccc(F)cc4)c(N)c3=O)C(F)(F)C2)[C@H](c2ccccc2)C1 | Yes |
| CC(C)(O)c1cccc(Oc2ncn(CC3(O)CCN(C(=O)[C@@H]4CCC(F)(F)C[C@H]4c4ccccc4)CC3)c(=O)c2N)c1 | No |
| NCc1ccc(Oc2ncn(C[C@@]3(O)CCN(C(=O)[C@@H]4CCC(F)(F)C[C@H]4c4ccccc4)CC3(F)F)c(=O)c2N)cc1 | Yes |
